Hey, just so you know, these numbers are from PubChem BioAssay AID1345085.

- Test system: JEG-3
- testProtocol: Confirmatory qHTS for gynecologic anti-cancer compounds from libraries of approved drugs and bioactive compounds; further: nearly all actives have a fitted effect of over 55% in size; further: potency means the concentration at half of the fitted maximal effect
- recordedConditions: gynecologic cancer cell panel viability, ATPlite luminescence, 48 h; series mostly up to 57.6 µM
Records with an inconclusive call do not appear. Calls of active or inactive are those of the source. The call rests on the fitted dose curve; in most records, active means well fitted cell-killing curve with a large enough effect; inconclusive means small, poorly fitted or top-dose-only effect, or effect the other way; inactive means no such curve, though single readings can be large or run the other way.
assayEndpoint: Potency

- molecule: "COc1ccc(CCC(=O)c2c(O)cc(O[C@@H]3O[C@H](CO)[C@@H](O)[C@H](O)[C@H]3O[C@@H]3O[C@@H](C)[C@H](O)[C@@H](O)[C@H]3O)cc2O)cc1O"
  assayedTarget: "JEG-3"
  assayEndpoint: "Potency"
  recordedResult: "inactive"
- molecule: "CN(C)C/C=C/C(=O)Nc1cc2c(Nc3ccc(F)c(Cl)c3)ncnc2cc1OC1CCOC1 (centres undefined)"
  assayedTarget: "JEG-3"
  assayEndpoint: "Potency"
  recordedResult: "19.3 µM (active)"
- molecule: "CCCC(Nc1nc(-c2ccc(NC(=O)NCC)c(OC)c2)ncc1C)c1cccnc1 (centres undefined)"
  assayedTarget: "JEG-3"
  assayEndpoint: "Potency"
  recordedResult: "0.153 µM (active)"
- molecule: "CS(=O)(=O)c1ccc(-c2cnc(N)c(C(=O)Nc3ccccc3)n2)cc1"
  assayedTarget: "JEG-3"
  assayEndpoint: "Potency"
  recordedResult: "inactive"
- molecule: "CCCCc1nc2cc(/C=C/C(=O)NO)ccc2n1CCN(CC)CC"
  assayedTarget: "JEG-3"
  assayEndpoint: "Potency"
  recordedResult: "1.53 µM (active)"
- molecule: "Cn1cnc2c(F)c(Nc3ccc(Br)cc3Cl)c(C(=O)NOCCO)cc21"
  assayedTarget: "JEG-3"
  assayEndpoint: "Potency"
  recordedResult: "inactive"
- molecule: "CCCCc1oc2ccc(NS(C)(=O)=O)cc2c1C(=O)c1ccc(OCCCN(CCCC)CCCC)cc1"
  assayedTarget: "JEG-3"
  assayEndpoint: "Potency"
  recordedResult: "27.3 µM (active)"
- molecule: "Cn1c(=O)c(-c2c(Cl)cccc2Cl)cc2cnc(Nc3cccc(C(=O)O)c3)nc21"
  assayedTarget: "JEG-3"
  assayEndpoint: "Potency"
  recordedResult: "inactive"
- molecule: "COCCOc1ccc2c(c1)ncn2-c1ccc2cccc(N3CCC(N)CC3)c2n1"
  assayedTarget: "JEG-3"
  assayEndpoint: "Potency"
  recordedResult: "10.9 µM (active)"
- molecule: "CCN1C[C@H](C)n2c(c(O)c3c(=O)n(Cc4ccc(F)c(Cl)c4)nc(C(=O)NC)c32)C1=O"
  assayedTarget: "JEG-3"
  assayEndpoint: "Potency"
  recordedResult: "inactive"
- molecule: "CC(C)Nc1cc(-c2c[nH]c(C(=O)N[C@H](CO)c3cccc(Cl)c3)c2)c(Cl)cn1"
  assayedTarget: "JEG-3"
  assayEndpoint: "Potency"
  recordedResult: "27.3 µM (active)"
- molecule: "Cc1nc(N)sc1-c1ccnc(Nc2ccc(N3CCOCC3)cc2)n1"
  assayedTarget: "JEG-3"
  assayEndpoint: "Potency"
  recordedResult: "13.7 µM (active)"
- molecule: "O=C(NCC(O)CO)c1ccncc1Nc1ccc(I)cc1F (centres undefined)"
  assayedTarget: "JEG-3"
  assayEndpoint: "Potency"
  recordedResult: "inactive"
- molecule: "CNC1CCC(N(Cc2cccc(-c3ccncc3)c2)C(=O)c2sc3ccccc3c2Cl)CC1 (centres undefined)"
  assayedTarget: "JEG-3"
  assayEndpoint: "Potency"
  recordedResult: "27.3 µM (active)"
- molecule: "COc1cc2c(Nc3ccc(NC(=O)c4ccccc4)cc3)ncnc2cc1OCCCN1CCOCC1"
  assayedTarget: "JEG-3"
  assayEndpoint: "Potency"
  recordedResult: "27.3 µM (active)"
- molecule: "COc1ccc(-c2ccc3c(N4CCOCC4C)nc(N4CCOCC4C)nc3n2)cc1CO (centres undefined)"
  assayedTarget: "JEG-3"
  assayEndpoint: "Potency"
  recordedResult: "inactive"
- molecule: "Cc1cncc2cccc(S(=O)(=O)N3CCCN(C(=O)CN)C[C@@H]3C)c12"
  assayedTarget: "JEG-3"
  assayEndpoint: "Potency"
  recordedResult: "inactive"
- molecule: "CC(C)(C)C(=O)OCOP(=O)(COCCn1cnc2c(N)ncnc21)OCOC(=O)C(C)(C)C"
  assayedTarget: "JEG-3"
  assayEndpoint: "Potency"
  recordedResult: "2.43 µM (active)"
- molecule: "C=CC(=O)Nc1cccc(Oc2nc(Nc3ccc(N4CCN(C)CC4)cc3)ncc2Cl)c1"
  assayedTarget: "JEG-3"
  assayEndpoint: "Potency"
  recordedResult: "24.3 µM (active)"
